test system: LOX IMVI; experiment: NCI tumour cell line growth inhibition, 48 h
Calls of active or inactive are those of the source. No stated cut-off is given here; in the data, active = GI50 up to about 1.1 µM and inactive = higher.
Measured GI50 accompanies every entry in the list below.

Below: 5 compounds and their reported GI50.
Data request, read-out GI50, for COCC#C[C@@]1(O)CCCCC1CC(OC)OC (stereo not given in full) 48 µM (inactive)

For the compound COc1cc(NCCC(=O)O)c2ncccc2c1 , what GI50 is on record? > 100 µM (inactive)

Which GI50 value belongs to COc1cc2c(cc1O)c(O)cc1c3cc(OC)c(OC)cc3c[n+](C)c21 ? 16.2 µM (inactive)

Dear colleague, I am looking for the recorded GI50 of the following compound: CC[C@]12C=CCN3CCC4(c5cc([C@@]6(C(=O)OC)CC7CN(CCc8c6[nH]c6ccccc86)CC6CCCCC67)c(OC)cc5N(C)C4[C@](O)(C(=O)OC)C1OC(C)=O)[C@@H]32 (stereo not given in full) < 0.01 µM (active)

Could you share which GI50 value was measured for CCOC(=O)C(NC(=O)N(C1=NCC(C)S1)C1CCCCC1)(OC)C(F)(F)F (stereo not given) ? 19.7 µM (inactive)

---
Find the recorded GI50 belonging to CC(=O)OCC(=O)[C@@]1(O)CC[C@H]2[C@@H]3C[C@H](C)C4=CC(=O)C=C[C@]4(C)[C@@]3(F)[C@@H](O)C[C@@]21C and report it. > 100 µM (inactive)

Need GI50 of O=S1(=O)CS(=O)(=O)OCCO1 , thanks. 16.8 µM (inactive)

What measured GI50 goes with CCOC(=O)c1ccc(C(=O)n2ccnc2)[nH]1 ? > 100 µM (inactive)

Which measured GI50 value corresponds to O=C(NNS(=O)(=O)c1ccccc1)c1cccnc1 ? > 100 µM (inactive)

// query GI50 value for entry O=C1C(Cl)=C(N2CCSCC2)C(=O)c2c(O)ccc(O)c21 0.186 µM (active)

###

Observed GI50, system HCT-15.
Your answer is read as µM, so omit the unit and give the number.

Look up GI50 for this compound: C[n+]1c(-c2ccc(/C=N/Nc3ccnc(N/N=C/c4ccc(-c5cn6ccccc6[n+]5C)cc4)n3)cc2)cn2ccccc21 98.9

Requested field: GI50. Item: CS(=O)(=O)OCC1CN(S(C)(=O)=O)c2cc(O)ccc21 (centres undefined) 3.1

What GI50 value was documented for this compound, Cc1ccc2nc3ccccc3c(C3C4C(=O)N(c5ccc(F)cc5)C(=O)C4ON3C(C(N)=O)c3ccccc3)c2c1 (centres undefined) ? 27.2

###

system: IGROV-1; assay: NCI tumour cell line growth inhibition, 48 h
Activity calls are given as the source filed them. Rule as the data show it: active = GI50 up to about 1.1 µM and inactive = higher.
measure: GI50

Value lookup for GI50; key = CN(C)CC(/C(Cc1ccccc1)=N\NC(=O)c1ccncc1)c1ccccc1 (stereo unspecified) 47.6 µM (inactive)

For C=C1CC(C)(COc2ccc3c(C)c(C)c(=O)oc3c2C)OC1=O (stereo unspecified) , what is its reported GI50? 1.63 µM (inactive)

Find the recorded GI50 belonging to CC(C)Cc1ccc(C(C)/C=C2\CCC(CN(C)C)C2=O)cc1 (stereo unspecified) and report it. 9.73 µM (inactive)

Quick one: GI50 of O=[N+]([O-])c1cccnc1NCC1(CO)CC(Cc2ccccc2)C1 (stereo unspecified) ? > 100 µM (inactive)

I have this compound here, CCCCCCCCCCC(O)CCCCCCC(=O)O (stereo unspecified) , and I need its recorded GI50. 18.2 µM (inactive)

What does the record list as GI50 for O=[N+]([O-])c1ccc2[nH]nc(OCc3ccccn3)c2c1 ? > 100 µM (inactive)
